- System: S. pneumoniae
- procedure text: Biological activity against bacterial strains: S. pneumoniae
- Type: cell-based, Streptococcus pneumoniae
- Parameters: unit not given here
- condition parameters: strain ATCC49619
measurement label: Biological Activity, S. pneumoniae ATCC49619

INSERT INTO measurements (compound, reading) VALUES
  ('CC[C@H]1OC(=O)C[C@@H](O)[C@H](C)[C@@H](OC2OC(C)C(O)C(N(C)C)C2O)[C@@H](CC=O)C[C@@H](C)C(=N/OCCOc2ccccc2)/C=C/C(C)=C/C1CO (stereo partly drawn)', 0.20),
  ('CCC1OC(=O)CC(O)C(C)C(OC2OC(C)C(O)C(N(C)C)C2O)C(CC=O)CC(C)C(=NOCCCCOc2ccc3ncccc3c2)C=CC(C)=CC1CO (stereo not drawn)', 0.01),
  ('CCC1OC(=O)CC(O)C(C)C(OC2OC(C)C(O)C(N(C)C)C2O)C(CCN2CC(C)CC(C)C2)CC(C)C(=NOCc2ccc(F)cc2)C=CC(C)=CC1COC1OC(C)C(O)C(OC)C1OC (single isomer, unassigned) [Compound Q]', 0.39),
  ('CCC1OC(=O)CC(O)C(C)C(OC2OC(C)C(O)C(N(C)C)C2O)C(CCN2CC(C)CC(C)C2)CC(C)C(=NOCC(=O)N2CCN(c3ccccc3)CC2)C=CC(C)=CC1CO (stereo not drawn)', 0.049),
  ('CCC1OC(=O)CC(O)C(C)C(OC2OC(C)C(O)C(N(C)C)C2O)C(CC=O)CC(C)C(=NOCCCOc2ccc3ncccc3c2)C=CC(C)=CC1COC1OC(C)C(O)C(OC)C1OC (single isomer, unassigned) [Compound BB]', 0.049),
  ('CC[C@H]1OC(=O)C[C@@H](O)[C@H](C)[C@@H](OC2OC(C)C(O)C(N(C)C)C2O)[C@@H](CC=O)C[C@@H](C)C(=N/OCc2ccc(F)cc2)/C=C/C(C)=C/C1CO (stereo partly drawn)', 0.2),
  ('CCC1OC(=O)CC(O)C(C)C(OC2OC(C)C(O)C(N(C)C)C2O)C(CC=O)CC(C)C(=NOCCCOc2ccc3ncccc3c2)C=CC(C)=CC1CN(C)C (single isomer, unassigned) [Compound Y]', 0.025),
  ('CCC1OC(=O)CC(O)C(C)C(OC2OC(C)C(O)C(N(C)C)C2O)C(CCN2CC(C)CC(C)C2)CC(C)C(=NOCCCOc2ccc3ncccc3c2)C=CC(C)=CC1COC1OC(C)C(O)C(OC)C1OC (single isomer, unassigned) [Compound L]', 0.025),
  ('CC[C@H]1OC(=O)C[C@@H](O)[C@H](C)[C@@H](O[C@@H]2O[C@H](C)[C@@H](O[C@H]3C[C@@](C)(O)[C@@H](O)[C@H](C)O3)[C@H](N(C)C)[C@H]2O)[C@@H](CC=O)C[C@@H](C)C(=O)/C=C/C(C)=C/[C@@H]1CO[C@@H]1O[C@H](C)[C@@H](O)[C@@H](OC)[C@H]1OC [Tyl, tylosin, reference compound]', 0.098);
